Target: porcine pancreatic lipase (Sus scrofa, UniProt P00591)
Construct: purchased Sigma-Aldrich Corp
Assay: Measurement of lipase inhibitory activity (Example 6; 4-MUO substrate, fluorescence)
Type: biochemical
TEST_READOUT: IC50 (µM)
State just the number; it will be interpreted in µM.

For the compound shown here, `O=C(O)c1cc(O)c(=O)c2c(O)c(O)c(O)cc2c1` , give the reported IC50.
4.16

###

Target: porcine pancreatic lipase (Type VI-S) (Sus scrofa)
Sequence (P00591 1-450): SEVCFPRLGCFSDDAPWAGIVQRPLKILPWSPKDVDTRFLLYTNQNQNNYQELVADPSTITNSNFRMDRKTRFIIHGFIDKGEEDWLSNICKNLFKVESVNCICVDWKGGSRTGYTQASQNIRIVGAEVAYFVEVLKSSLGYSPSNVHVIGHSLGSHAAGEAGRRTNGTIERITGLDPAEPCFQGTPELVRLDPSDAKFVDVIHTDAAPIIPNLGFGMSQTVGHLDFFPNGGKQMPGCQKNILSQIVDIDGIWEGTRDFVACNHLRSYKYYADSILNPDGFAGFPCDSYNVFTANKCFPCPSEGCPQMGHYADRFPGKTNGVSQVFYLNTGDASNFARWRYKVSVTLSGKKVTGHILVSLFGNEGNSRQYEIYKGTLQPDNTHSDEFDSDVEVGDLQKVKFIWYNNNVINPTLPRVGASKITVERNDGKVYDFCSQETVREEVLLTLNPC
TEST_READOUT: IC50 (nM)
Express it in nM; write the number only.

O=C(O[C@@H]1Cc2c(O)cc(O)cc2O[C@@H]1c1cc(O)c(O)c2c(=O)c(O)cccc12)c1cc(O)c(O)c(O)c1 [Compound 14, theaflavanin 3-O-gallate]
168

Let's switch to this molecule now.
What measured IC50 goes with O=C(O[C@@H]1Cc2c(O)cc(O)cc2O[C@@H]1c1cc(=O)c(O)c2c(O)c(O)c(O)cc2c1)c1cc(O)c(O)c(O)c1 [Compound 4, epitheaflagallin-3-O-gallate, reference compound] ?
125
